These entries and their values trace back to patent US20230183218A1.

Field: remaining activity at 30 µM. Provide a value for each of the molecules that follow.
Target: Human M4 (Homo sapiens)
Construct: expressed in transfected cells; host or cells: CHO-K1 (ATCC), stably co-expressing chimeric G protein Gqi5
Test: mAChR M4 cell-based functional assay (calcium flux, antagonist mode vs EC80 acetylcholine), human M4/Gqi5/CHO-K1 cells
Conditions: CHO-K1; % ACh maximum at 30 μM; human M4; read-out: Human M4 Emin (%)

Query remaining activity at 30 µM on Human M4 (Homo sapiens) for Cc1cc2c(cc1CN1C[C@H]3C[C@H](Nc4ccc(S(=O)(=O)C5CCCCC5)nn4)C[C@H]3C1)OCO2 [compound 44] 3%

And O=C(Nc1ccccc1)c1ccc(N[C@H]2C[C@@H]3CN(CC4CCOCC4)C[C@@H]3C2)nn1 [compound 7] ? 4%

Note, next up: O=C(NC1CC1)c1ccc(N[C@H]2C[C@@H]3CN(CC4CCOCC4)C[C@@H]3C2)nn1 [compound 3] 9%

// query: Fc1ccc(Cl)c(-c2ccc(N[C@H]3C[C@@H]4CN(C5CCC(F)(F)CC5)C[C@@H]4C3)nn2)c1 [compound 67] 4%

* * *

Target: Human M4 (Homo sapiens)
Construct: expressed in transfected cells; host or cells: CHO-K1 (ATCC), stably co-expressing chimeric G protein Gqi5
Sequence (P08173 1-479): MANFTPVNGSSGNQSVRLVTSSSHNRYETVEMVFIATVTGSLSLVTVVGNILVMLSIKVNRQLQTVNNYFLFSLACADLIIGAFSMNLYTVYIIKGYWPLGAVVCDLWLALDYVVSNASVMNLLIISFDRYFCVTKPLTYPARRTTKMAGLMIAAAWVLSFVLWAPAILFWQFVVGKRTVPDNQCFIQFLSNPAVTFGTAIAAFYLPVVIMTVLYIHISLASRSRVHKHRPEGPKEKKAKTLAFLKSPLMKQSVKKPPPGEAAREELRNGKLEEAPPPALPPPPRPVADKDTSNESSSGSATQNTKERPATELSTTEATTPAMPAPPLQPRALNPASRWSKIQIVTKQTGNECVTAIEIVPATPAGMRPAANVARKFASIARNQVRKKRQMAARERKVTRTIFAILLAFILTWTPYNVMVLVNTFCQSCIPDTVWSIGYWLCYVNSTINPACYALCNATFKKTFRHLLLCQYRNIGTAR
Assay: mAChR M4 cell-based functional assay (calcium flux, antagonist mode vs EC80 acetylcholine), human M4/Gqi5/CHO-K1 cells
Details: CHO-K1; % ACh maximum at 30 μM; human M4; read-out: Human M4 Emin (%)
metricName: remaining activity at 30 µM (%)
Just the number please, in %, no unit attached.

What value of measured remaining activity at 30 µM is listed for Fc1ccc(Cl)c(-c2ccc(N[C@H]3C[C@@H]4CN(C5CC6(COC6)C5)C[C@@H]4C3)nn2)c1 [compound 69] ? 4

Similarly, Cc1cccnc1CN1C[C@H]2C[C@H](Nc3ccc(S(=O)(=O)c4ccccc4)nn3)C[C@H]2C1 [compound 40] ? 5

And then CC(C)(C)CCN1C[C@H]2C[C@H](Nc3ccc(S(=O)(=O)C4CCCCC4)nn3)C[C@H]2C1 [compound 49] , what is it? 3

Please give the result for Cc1cc(CN2C[C@H]3C[C@H](Nc4ccc(S(=O)(=O)c5ccccc5)nn4)C[C@H]3C2)ccc1F [compound 31] too. 4

Then what about the compound Cc1cc2c(cc1CN1C[C@H]3C[C@H](Nc4ccc(S(=O)(=O)c5ccccc5)nn4)C[C@H]3C1)OCO2 [compound 42] ? 3

Proceed to Fc1ccc(Cl)c(-c2ccc(N[C@H]3C[C@@H]4CN(C5CCSCC5)C[C@@H]4C3)nn2)c1 [compound 15] 7

// same read-out, input: Fc1ccc(Cl)c(-c2ccc(N[C@H]3C[C@@H]4CN(C5(C6CCOCC6)CC5)C[C@@H]4C3)nn2)c1 [compound 64] 4
